Listed here: items and their measured self-cleavage.
B1: Hairpin Ribozyme (parent)
chain: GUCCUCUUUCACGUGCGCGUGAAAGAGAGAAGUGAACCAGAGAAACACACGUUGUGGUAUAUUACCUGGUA

- Variants of: B1
- ASSAY_REMARKS: self-cleavage, relative activity (ratio to wild type); higher = more cleavage; co-transcriptional
READOUT_NAME: self-cleavage

VARIANT_KEY: C12A
VALUE_OBSERVED: 0.805
//
VARIANT_KEY: G57U A64U
VALUE_OBSERVED: 0.173
//
VARIANT_KEY: A31U U63A
VALUE_OBSERVED: 0.0279
//
VARIANT_KEY: U20A C48G
VALUE_OBSERVED: 0.219
//
VARIANT_KEY: A61U U63A
VALUE_OBSERVED: 0.123
//
VARIANT_KEY: U5A A49C
VALUE_OBSERVED: 0.124
//
VARIANT_KEY: U8G G25U
VALUE_OBSERVED: 0.2
//
VARIANT_KEY: C37U A59U
VALUE_OBSERVED: 0.16
//
VARIANT_KEY: A36C C46A
VALUE_OBSERVED: 0.026
//
VARIANT_KEY: U33A A44U
VALUE_OBSERVED: 0.141
//
VARIANT_KEY: A28U C66G
VALUE_OBSERVED: 0.302
//
VARIANT_KEY: C6U G27U
VALUE_OBSERVED: 0.147
//
VARIANT_KEY: A31C G57A
VALUE_OBSERVED: 0.107
//
VARIANT_KEY: U7C G32A
VALUE_OBSERVED: 0.0904
//
VARIANT_KEY: G17U G21U
VALUE_OBSERVED: 0.53
